B1: TPR t1 (parent)
chain: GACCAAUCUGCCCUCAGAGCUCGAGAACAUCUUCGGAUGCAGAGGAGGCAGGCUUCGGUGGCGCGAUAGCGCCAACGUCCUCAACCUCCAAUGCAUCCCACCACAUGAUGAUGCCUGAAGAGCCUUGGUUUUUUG

Variants of: B1
test_protocol: polymerase ribozyme fitness, log enrichment relative to wild type (log ratio); higher = more active; in vitro selection for triplet polymerase activity
In this scheme, each record receives a class according to its polymerase ribozyme fitness (log ratio); the ranges are c1: < -4; c2: ≥ -4 and < -2; c3: ≥ -2

Asked: GET /class?item= GACCAAUCUGCCCUCAGAGCUCGAGAACAUCUUCGCAUGCAGAGGAGGCAGGCGUCGGUGGCGCGAUAGCGCAAACGUCCUCAACCUCCAAUGCAUCCCACCACAUGAUGAUGCCUGAAGAGCCUUGGUUUUUUG [G36C U54G C73A]
Given back: c2

Asked: GET /class?item= GACCAAUCUGCCCUCUGAGCUCGAGAACAUCUUCGGAUGCAGAGGAGGCAGGCUUCGGUGGCGCGAUAGCGCCAACGCCCUCAACCUCCAAUGCAUCCCACCACAUGAUGAUGCCUGAAGAGCCUUGGUUUUUUG [A16U U78C]
Given back: c2

Asked: GET /class?item= GACCAAUCUGCCCUCAGAGCUCGAGAACAUCUUCGGAUGCAGAGGAGGCAUGCUUCGGUGGCGCGAUAGCGCCAACGUCCUCAACCUCCAAUGCAUCCCACCACAUGAUGAUGCCUGAAGAGCCAUGGUUUUUUG [G51U U125A]
Given back: c2

Asked: GET /class?item= GACCAAUCUGCCCUCAGAGCUCGAGAACAUCUUCGGAUGAAGAGGAGGCAGGCUUCGGUGGAGCGAUAGCGCCAACGUCCUCAACCUCCAAUGCAUCCCACCACAUGAUGAUGCCUGGAGAGCCUUGGUUUUUUG [C40A C62A A118G]
Given back: c2

Asked: GET /class?item= GACCAAUCUGCCCUCAGAGCUCGAGAACAUCUUCGGAUGCAGAGGAGGCAUGCUUCGGUGGCGCGAUAGCGCCAACGUCCUCAACCUCCAAUGCAUCCCACCACAUGAUGCUGCCUGAAGAGCCUUGGUUUUUUG [G51U A111C]
Given back: c1

Asked: GET /class?item= GACCAAUCUGCCCUCAGAGCUCGAGAACAUCUUCGGAUGCAGAGGAGGCAGGCUUCGGUGGCGCGAUAGCGCCAACGUCCUCAACCACCAAUGCAUCCCACCACAUGAUGAUACCUGAAGAGCCUUGGUUUUUUG [U87A G113A]
Given back: c3

Asked: GET /class?item= GACCAAUCUGCCCUCAGAGCUCGAGAACAUCUUCGGAUGCAGGGGAGGCAGGCUUCGGUGGCGCGAUAGCGCCAACGUCCUCAACCUCCAAUGCAUCCCACCACAUGAAGAUGCCUGAAGAGCCUUGGUUUUUUG [A43G U109A]
Given back: c1

Asked: GET /class?item= GACCAAUCUGCCCUCAGAGCUCGAGAACUUCUUCGGAUGCAGAGGAGGCAGGCUUCGGUGACGCGAUAGCGCCAACGUCCUGAACCUCCAAUGCAUCCCACCACAUGAUGAUGCCCGAAGAGCCAUGGUUUUUUG [A29U G61A C82G U116C U125A]
Given back: c2

Asked: GET /class?item= GACCAAUCUGCUCUCAGAGCUCGAGAACAUCUUCGGAUGCAGAGGAGGCAGGCUUUGGUGGCGCGAUAGCGCCAACGUCCUCAACCUCCAAUGCAUCCCACCACAUGAUGAUGCCUGAAGAGCCUUGGUUUUUUG [C12U C56U]
Given back: c3

Asked: GET /class?item= GACCAAUCUGCCCUCAGAGCUCGAGAACAUCUUCGGAUGCAGAGGGGGCAGGCUUCAGUGGCGCGAUAGCGCUAACGUCCUCGACCUCCAAUGCAUCCCACCACAUGAUGACGCCUGAAGAGCCUUGGUUUUUUG [A46G G57A C73U A83G U112C]
Given back: c3

Asked: GET /class?item= GACCAAUCUGCCCUCAGAGUUCGAGAACAUGUUCGGAUGCAGAGGAGGCAGGCUUCGGUGGCGCGUUAGCGCUAACGUCCUCAACCUCCAAUGCAUCACACCACAUGAUAAUGCCUGAAGAGCCUUGGUUUUUUG [C20U C31G A66U C73U C98A G110A]
Given back: c1

Asked: GET /class?item= GACCAAUCUGCCCUCAGAGCUCGAGAACAUCUUCGGAUGCAGAGGAGGCAGGCUUCGGUUGCGCGAUAGCGCCAACGUCCUCAAGCUCCAAUGCAUCCCACAACAUGAUGAUGCCUGAAGAGCCUUGGUUUUUUG [G60U C85G C102A]
Given back: c2

Asked: GET /class?item= GACCAAUCUGCCCUCAGAGCUCGAGAACAUCAUCGGAUGCAGAGGAGGCAGGCUUGGGUGGCGCGAUAGCGCCAACUUCCUCAACCUCCAAUGCAUCCAACCACAUGAUGAUGCCUGAAGAGUCGUGGUUUUUUG [U32A C56G G77U C99A C123U U125G]
Given back: c1

Asked: GET /class?item= GACCAAUCUGCCCUCAGAGCUCGAGAACAUCUUCGGAUGCAGAGGAGGCAGGGUUCGGUGGCGCGAUAGCGCCAACGUCCUCAACCGCCAAUGCAUCCCACCACAUGAUGAUGCCUGAAGAGCCUUUGUUUUGUG [C53G U87G G127U U133G]
Given back: c3

Asked: GET /class?item= GACCAAUGUGCCCUCAGAGCUCGAGAACAUCUUCGGAUGCAGAGGAGGCAGGCUUCGGUUGCGCGAUAGCGCCAACGUCCUCAACCUCCAAUGCAUCCCACUACAUGAUGAUGCCUGAAGAGCCUUGGUUUUUUG [C8G G60U C102U]
Given back: c3

Asked: GET /class?item= GACCAAUCUGCGCUGAGAGCUCGAGAACAUCUUCGGAUGCAGAGAAGGGAGGCUUCGGUGGCGCGAUAGCGCCAACGUCCUCAAUCUCCAAUGCAUCCCACCACAUGAUGAUGCCUGAAGAGCUUUGGUUUUUUG [C12G C15G G45A C49G C85U C124U]
Given back: c2

Asked: GET /class?item= GACCUAUGUGCCCUCAGAGUUCGAGAACAUCUUCGGAUGAAGAGGAGGCAGGCUUCGGUGGCGCGAUAGCGCCAACGUCCUCAACCUCCAAUGCAUCCCACCACAUGAUGAUGCCUGAAGAGCCUUGGUUUUUUG [A5U C8G C20U C40A]
Given back: c2

Asked: GET /class?item= GACCAAUCUGCCCUCAGAGCUCGAGAACAUCUUCGGAUGCAGAGGAGGCAGGCUUCGGUGGCGCGAUAGCGCCAACGUCCUCAACCUCCAAUGCAUCCCACCACUUGAUGAUGCCUGAAGAGCCUUGGUUUUUUG [A105U]
Given back: c3

Asked: GET /class?item= GACCAAUCUGCCCUCAGAGCUCGAGAACAUCUUCGGAUGCAGAGGAGGUAGGAUUCGGUGGCGCGAUAGCGCCAACGUCCUCAACCUCCAAUGCAUCCCACCAUAUGAUGAUGCCUGAAGAGCCUUGGUUUUUUG [C49U C53A C104U]
Given back: c3

Asked: GET /class?item= GACCAAUCUGCCCUCAGAGCUCGAGAACAUCUUCGGAUGCAAAGGAGGCAGGCUUCGGUGGCGCGAUAGCGCCAACGUCCACAACCUCCAAUGCAUCCCACCACAUGAUGAUGCCUGAAGAGCCUUGGUUUUUUG [G42A U81A]
Given back: c1

Asked: GET /class?item= GACCAAUCUGCCCUCAGAGCUCGAGAACAUCUUCGGAUGCAGAGGAGGCAGGCUUCGGUGCCGCGAUAGCGCCAACGUCCUCAACCUCCAAUGCAUCCCACCACAUGAUGAUGCCUAAAGAGCCUUGGUUUUUUG [G61C G117A]
Given back: c2
